Collected IC50 values appear next to each entry.
Test system: Plasmodium berghei
Experiment: Luciferase/luciferin-expressing antifolate-resistant parasites were used to infect a culture of HepG2 cells that were pre-incubated with compounds. Infected hepatocytes emit light due to the luciferase reaction. Assay results are presented as the percent inhibition of light emission compared to control. […]
Assay type: functional
Settings: sporozoite, read-out: LUCIFERASE INFECTION ASSAY - IC50

For orientation, consider the following solved cases.
Cc1nn(-c2ccccc2)c(Cl)c1/C=N/N1CCN(c2ccc(Cl)cc2)CC1 = > 10 µM
CC(C)c1nc(NCCCN2CCOCC2)c(C#N)c2c1CCCC2 = > 9.64 µM
O=C(Nc1ccc(F)cc1)OCCSc1ccc([N+](=O)[O-])c2nonc12 = > 8.72 µM
O=C(c1ccc(O)cc1)C1CCN(C(=O)c2cccc(N3CCCC3=O)c2)CC1 = > 10 µM
O=C(CN1CCN(C(=O)C23CC4CC(CC(C4)C2)C3)CC1)c1ccc[nH]1 = > 10 µM

Lab note: `O=C(OCC(=O)N1CCN(C(=O)c2ccco2)CC1)c1cccc(NS(=O)(=O)c2ccc(F)c(F)c2)c1` gave IC50 of > 10 µM

Lab note: `Cc1cccc(-c2nc(-c3cc(C)n(-c4nnc[nH]4)c3C)cs2)c1` gave IC50 of 9.67 µM

* * *

Test system: Plasmodium berghei
Test: Luciferase/luciferin-expressing antifolate-resistant parasites were used to infect a culture of HepG2 cells that were pre-incubated with compounds. Infected hepatocytes emit light due to the luciferase reaction. Assay results are presented as the percent inhibition of light emission compared to control. […]
Type: functional
Conditions: sporozoite, HEPG2TOX_HILL_SLOPE 2.45, HEPG2TOX_R_SQUARED 0.834, PBLUC_HILL_SLOPE 1.44, PBLUC_R_SQUARED 0.354, read-out: LUCIFERASE INFECTION ASSAY - IC50
Metric: IC50

Lab note: `CCCCc1ccc2nc(NC(=O)c3cnc(C)cn3)sc2c1` gave IC50 of > 10 µM

* * *

System: Plasmodium berghei
Assay: Luciferase/luciferin-expressing antifolate-resistant parasites were used to infect a culture of HepG2 cells that were pre-incubated with compounds. Infected hepatocytes emit light due to the luciferase reaction. Assay results are presented as the percent inhibition of light emission compared to control. […]
Type: functional
Settings: sporozoite, PBLUC_HILL_SLOPE 3.23, PBLUC_R_SQUARED 0.426, read-out: LUCIFERASE INFECTION ASSAY - IC50
Metric: pIC50
// pIC50 is dimensionless: -log10 of concentration (M)

Lab note: `CN1/C(=C\C=N\NC(=O)c2cccs2)C(C)(C)c2ccccc21` gave pIC50 of 5.37

* * *

System: Plasmodium berghei
Experiment: Luciferase/luciferin-expressing antifolate-resistant parasites were used to infect a culture of HepG2 cells that were pre-incubated with compounds. Infected hepatocytes emit light due to the luciferase reaction. Assay results are presented as the percent inhibition of light emission compared to control. […]
Type: functional
Details: sporozoite, HEPG2TOX_HILL_SLOPE 2.51, 1.28, HEPG2TOX_R_SQUARED 0.778, 0.972, PBLUC_HILL_SLOPE 2.92, 9.52, PBLUC_R_SQUARED 0.401, 0.159, read-out: LUCIFERASE INFECTION ASSAY - IC50
Metric: IC50 (µM)
Provide only the numeric value, understood in µM.

Lab note: `Clc1ccc2c(NCc3ccc(CN4CCOCC4)cc3)ccnc2c1` gave IC50 of 4.34
